Measurement name: melting point

Observe how each entry below is paired with its result.
# Structure string, melting point
measured = [
    ("CCOc1cc(O)ccc1/C=N/NC(=O)Cc1cccc(O)c1", "190 to 192 °C"),
    ("COc1cc(O)ccc1/C=N/NC(=O)Cc1cccc(Cl)c1", "121 to 122 °C"),
]

Ask: What does the data say about its melting point? Entry: `COc1cc(O)ccc1/C=N/NC(=O)Cc1cccc([N+](=O)[O-])c1`
Reply: 240 to 241 °C

Ask: What does the data say about its melting point? Entry: `COc1cccc(CC(=O)N/N=C/c2c(C)cc(O)cc2C)c1`
Reply: 172 to 173 °C

Ask: What does the data say about its melting point? Entry: `COc1cc(O)ccc1/C=N/NC(=O)Cc1cccc(C(F)(F)F)c1`
Reply: 203 to 204 °C

* * *

List of melting point values.

# Molecule, Measurement name, Experimental value
data = [
    ("O=C(Cc1ccccc1)N/N=C/c1ccc(O)c(F)c1", "melting point", "207 °C"),
    ("O=C(Cc1cccc(F)c1)N/N=C/c1ccc(O)c(F)c1", "melting point", "193 to 194 °C"),
    ("COc1cc(O)ccc1/C=N/NC(=O)C(O)c1ccccc1 (centres unmarked)", "melting point", "217 to 218 °C"),
    ("COc1cc(O)cc(C)c1/C=N/NC(=O)Cc1cccc(O)c1", "melting point", "194 to 195 °C"),
]

Ask: What does the data say about its melting point? Entry: `COc1cccc(CC(=O)N/N=C/c2ccc(OC(C)=O)cc2OC)c1`
Reply: 147 to 148 °C

Ask: What does the data say about its melting point? Entry: `COc1cccc(CC(=O)N/N=C/c2cc(Cl)ccc2O)c1`
Reply: 178 to 179 °C

* * *

Measurement name: melting point

Ask: What does the data say about its melting point? Entry: `COc1cccc(OCC(=O)N/N=C/c2ccc(O)cc2OC)c1`
Reply: 173 to 174 °C

Ask: What does the data say about its melting point? Entry: `COc1cc(O)ccc1/C=N/NC(=O)Cc1ccc(F)cc1`
Reply: 184 to 185 °C

* * *

List of melting point values.

# Structure string, melting point
data = [
    ("COc1cc(O)ccc1/C=N/NC(=O)Cc1cc(F)cc(F)c1", "224 to 225 °C"),
]

Ask: What does the data say about its melting point? Entry: `COc1cc(O)ccc1/C=N/NC(=O)Cc1ccc(F)cc1Cl`
Reply: 242 to 243 °C

Ask: What does the data say about its melting point? Entry: `COc1cccc(CC(=O)N/N=C/c2ccc(O)cc2O)c1`
Reply: 205 to 206 °C

* * *

List of melting point values.

# Structure string, Measurement name, Experimental value
data = [
    ("COc1cc(O)ccc1/C=N/NC(=O)Cc1cc(O)cc(O)c1", "melting point", "246 °C (dec.)"),
]

Ask: What does the data say about its melting point? Entry: `COc1cccc(CC(=O)N/N=C/c2ccc(O)cc2OC)c1`
Reply: 166 to 167 °C

Ask: What does the data say about its melting point? Entry: `COc1cccc(CC(=O)N/N=C(\C)c2ccc(O)cc2)c1`
Reply: 162 to 164 °C

Ask: What does the data say about its melting point? Entry: `COc1cc(O)ccc1/C=N/NC(=O)Cc1ccc(O)cc1`
Reply: 224 °C

Ask: What does the data say about its melting point? Entry: `COc1cccc(CCC(=O)N/N=C/c2ccc(O)cc2OC)c1`
Reply: 159 to 160 °C

Ask: What does the data say about its melting point? Entry: `COc1cc(O)ccc1/C=N/NC(=O)Cc1ccccc1F`
Reply: 213 to 215 °C

Ask: What does the data say about its melting point? Entry: `COc1cccc(CC(=O)N/N=C(\C)c2ccc(O)cc2OC)c1`
Reply: 160 to 162 °C

Ask: What does the data say about its melting point? Entry: `COc1cc(O)ccc1/C=N/NC(=O)Cc1cccc(F)c1`
Reply: 111 to 112 °C

Ask: What does the data say about its melting point? Entry: `COc1cccc(CC(=O)N/N=C/c2ccc(O)c(F)c2)c1`
Reply: 190 to 191 °C

Ask: What does the data say about its melting point? Entry: `COc1cccc(CC(=O)N/N=C/c2ccc(O)cc2)c1`
Reply: 162 to 163 °C

Ask: What does the data say about its melting point? Entry: `COc1cc(O)ccc1/C=N/NC(=O)Cc1cccc(OS(C)(=O)=O)c1`
Reply: 132 °C

Ask: What does the data say about its melting point? Entry: `COc1cc(O)ccc1/C=N/NC(=O)Cc1ccccc1C`
Reply: 119 to 120 °C

Ask: What does the data say about its melting point? Entry: `COc1cc(O)ccc1/C=N/NC(=O)Cc1ccc(Cl)c(Cl)c1`
Reply: 232 to 233 °C

* * *

List of melting point values.

# Molecule, melting point
measured = [
    ("COc1cc(O)ccc1/C=N/NC(=O)Cc1cccc(C)c1 [compound 8]", "207 to 208 °C"),
]

Ask: What does the data say about its melting point? Entry: Cc1cc(O)ccc1/C=N/NC(=O)Cc1cccc(O)c1 [compound 37]
Reply: 203 to 204 °C

Ask: What does the data say about its melting point? Entry: COc1cc(O)ccc1/C=N/NC(=O)Cc1cccc(Br)c1 [compound 33]
Reply: 214 to 215 °C

Ask: What does the data say about its melting point? Entry: COc1cccc(CC(=O)N/N=C/c2cc([N+](=O)[O-])ccc2O)c1 [compound 29]
Reply: 198 to 199 °C

Ask: What does the data say about its melting point? Entry: COc1cc(O)ccc1/C=N/NC(=O)Cc1ccccc1Cl [compound 10]
Reply: 134 to 135 °C
